Would you mind telling me the reported IC50 of each entry?

Exercise: Give recorded IC50 with USP7 (Homo sapiens, UniProt Q93009) for the following molecule: `NC(=O)c1ccc2c(-c3cc(Cl)cc4c3O[C@@H](c3onc5c3CNCC5)C4)ccnc2c1`
Sequence (Q93009 whole entry): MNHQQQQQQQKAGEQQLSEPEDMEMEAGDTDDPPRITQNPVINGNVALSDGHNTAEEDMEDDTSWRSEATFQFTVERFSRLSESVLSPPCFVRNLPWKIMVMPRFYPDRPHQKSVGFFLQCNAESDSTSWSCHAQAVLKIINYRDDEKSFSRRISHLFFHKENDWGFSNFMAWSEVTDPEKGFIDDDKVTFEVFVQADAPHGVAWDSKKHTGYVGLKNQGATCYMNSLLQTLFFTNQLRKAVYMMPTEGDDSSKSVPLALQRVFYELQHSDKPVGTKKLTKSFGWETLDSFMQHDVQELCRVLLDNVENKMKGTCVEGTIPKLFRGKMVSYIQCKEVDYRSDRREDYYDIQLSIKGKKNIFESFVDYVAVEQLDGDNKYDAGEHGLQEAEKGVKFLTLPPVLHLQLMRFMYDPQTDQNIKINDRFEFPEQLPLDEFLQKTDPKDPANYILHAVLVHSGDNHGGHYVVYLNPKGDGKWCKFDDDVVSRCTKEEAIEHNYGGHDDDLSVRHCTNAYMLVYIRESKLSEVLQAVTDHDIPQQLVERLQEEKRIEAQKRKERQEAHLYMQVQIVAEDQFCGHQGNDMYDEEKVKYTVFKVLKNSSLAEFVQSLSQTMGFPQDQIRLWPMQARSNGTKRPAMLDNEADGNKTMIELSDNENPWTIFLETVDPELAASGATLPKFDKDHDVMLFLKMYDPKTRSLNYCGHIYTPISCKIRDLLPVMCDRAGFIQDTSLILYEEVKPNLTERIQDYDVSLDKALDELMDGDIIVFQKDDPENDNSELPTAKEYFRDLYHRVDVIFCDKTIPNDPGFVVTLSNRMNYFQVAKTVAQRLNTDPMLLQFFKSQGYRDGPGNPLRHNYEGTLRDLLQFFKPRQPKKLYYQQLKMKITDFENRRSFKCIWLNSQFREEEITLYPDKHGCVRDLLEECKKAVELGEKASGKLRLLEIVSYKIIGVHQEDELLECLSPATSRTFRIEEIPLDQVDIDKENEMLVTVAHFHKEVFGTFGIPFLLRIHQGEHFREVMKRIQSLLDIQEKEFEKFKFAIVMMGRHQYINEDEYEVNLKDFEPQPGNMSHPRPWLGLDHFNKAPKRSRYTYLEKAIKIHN
Key: 1000 to 10000 nM

Exercise: Give recorded IC50 with USP7 (Homo sapiens, UniProt Q93009) for the following molecule: `NCc1cc(-c2cc(Cl)cc3c2O[C@@H](c2onc4c2CNCC4)C3)c2ccccc2n1`
Key: 1000 to 10000 nM

Exercise: Give recorded IC50 with USP7 (Homo sapiens, UniProt Q93009) for the following molecule: `CC(=O)N(C)Cc1cc2nccc(-c3cc(Cl)cc4c3O[C@@H](C(=O)N3CCNCC3)C4)c2s1`
Key: < 1000 nM

Exercise: Give recorded IC50 with USP7 (Homo sapiens, UniProt Q93009) for the following molecule: `CS(=O)(=O)NCc1cc2nccc(-c3cc(Cl)cc4c3O[C@@H](C(=O)N3CCNCC3)C4)c2s1`
Key: < 1000 nM

Exercise: Give recorded IC50 with USP7 (Homo sapiens, UniProt Q93009) for the following molecule: COc1ccc2nccc(-c3cc(Cl)cc4c3OC(C(=O)N3CCNCC3)C4)c2c1 (centres unmarked)
Key: 10000 to 30000 nM

Exercise: Give recorded IC50 with USP7 (Homo sapiens, UniProt Q93009) for the following molecule: CCC(O)c1cc2nccc(-c3cc(Cl)cc4c3O[C@@H](c3onc5c3CN(C)CC5)C4)c2s1 (some centres unmarked) [drawing 1573]
Key: < 1000 nM

Exercise: Give recorded IC50 with USP7 (Homo sapiens, UniProt Q93009) for the following molecule: OCC(O)(CCl)c1cc2nccc(-c3cc(Cl)cc4c3O[C@@H](c3onc5c3CNCC5)C4)c2s1 (some centres unmarked)
Key: < 1000 nM

Exercise: Give recorded IC50 with USP7 (Homo sapiens, UniProt Q93009) for the following molecule: `COc1ccc(CN2C(=O)CN(Cc3cc4nccc(-c5cc(Cl)cc6c5O[C@@H](C(=O)N5CCNCC5)C6)c4s3)C2=O)cc1`
Key: < 1000 nM

Exercise: Give recorded IC50 with USP7 (Homo sapiens, UniProt Q93009) for the following molecule: CC(O)c1ccc2c(-c3cc(Cl)cc4c3O[C@@H](C(=O)N3CCNCC3)C4)ccnc2c1 (some centres unmarked)
Key: < 1000 nM

Exercise: Give recorded IC50 with USP7 (Homo sapiens, UniProt Q93009) for the following molecule: `Cc1cc2nccc(-c3cc(Cl)cc4c3O[C@@H](c3onc5c3CNCC5)C4)c2s1`
Key: < 1000 nM

Exercise: Give recorded IC50 with USP7 (Homo sapiens, UniProt Q93009) for the following molecule: `O=C([C@H]1Cc2cc(Cl)cc(-c3ccnc4cc(CCN5C(=O)c6ccccc6C5=O)sc34)c2O1)N1CCNCC1`
Key: < 1000 nM

Exercise: Give recorded IC50 with USP7 (Homo sapiens, UniProt Q93009) for the following molecule: CCC(O)c1cc2nccc(-c3cc(Cl)cc4c3O[C@@H](c3c5c(nn3C)CCNC5)C4)c2s1 (some centres unmarked)
Key: < 1000 nM

Exercise: Give recorded IC50 with USP7 (Homo sapiens, UniProt Q93009) for the following molecule: `Cc1cc2ncnc(-c3cc(Cl)cc4c3O[C@@H](c3onc5c3CNCC5)C4)c2s1`
Key: < 1000 nM

Exercise: Give recorded IC50 with USP7 (Homo sapiens, UniProt Q93009) for the following molecule: CN(C)[C@H]1CCc2noc(C3Cc4cc(Cl)cc(-c5ccnc6cc(CO)sc56)c4O3)c2C1 (some centres unmarked)
Key: 1000 to 10000 nM

Exercise: Give recorded IC50 with USP7 (Homo sapiens, UniProt Q93009) for the following molecule: O=C(C1Cc2cc(Cl)cc(-c3ccnc4ccncc34)c2O1)N1CCNCC1 (centres unmarked)
Key: 10000 to 30000 nM

Exercise: Give recorded IC50 with USP7 (Homo sapiens, UniProt Q93009) for the following molecule: `CN(C)Cc1ncoc1[C@H]1Cc2cc(Cl)cc(-c3ccnc4ccsc34)c2O1`
Key: < 1000 nM

Exercise: Give recorded IC50 with USP7 (Homo sapiens, UniProt Q93009) for the following molecule: O=C([C@H]1Cc2cc(Cl)cc(-c3ccnc4cc(C(O)CCl)sc34)c2O1)N1CCNCC1 (some centres unmarked)
Key: < 1000 nM

Exercise: Give recorded IC50 with USP7 (Homo sapiens, UniProt Q93009) for the following molecule: `O=C([C@H]1Cc2cc(Cl)cc(-c3ccnc4[nH]ccc34)c2O1)N1CCNCC1`
Key: < 1000 nM

Exercise: Give recorded IC50 with USP7 (Homo sapiens, UniProt Q93009) for the following molecule: `C[C@H](c1cc2nccc(-c3cc(Cl)cc4c3O[C@@H](C(=O)N3CCNCC3)C4)c2s1)N1C(=O)CCC1=O`
Key: < 1000 nM

Exercise: Give recorded IC50 with USP7 (Homo sapiens, UniProt Q93009) for the following molecule: O=C(C1CCNCC1)C1Cc2cc(Cl)cc(-c3ccnc4[nH]ccc34)c2O1 (centres unmarked)
Key: 1000 to 10000 nM

Exercise: Give recorded IC50 with USP7 (Homo sapiens, UniProt Q93009) for the following molecule: `O=C([C@H]1Cc2cc(Cl)cc(-c3ccnc4cc(CO)sc34)c2O1)N1CCn2nc(C(F)(F)F)nc2C1`
Key: 1000 to 10000 nM

Exercise: Give recorded IC50 with USP7 (Homo sapiens, UniProt Q93009) for the following molecule: `CS(=O)(=O)NCCc1cc2nccc(-c3cc(Cl)cc4c3O[C@@H](C(=O)N3CCNCC3)C4)c2s1`
Key: < 1000 nM

Exercise: Give recorded IC50 with USP7 (Homo sapiens, UniProt Q93009) for the following molecule: O=C(C1Cc2cc(Cl)cc(-c3ccnc4cccnc34)c2O1)N1CCNCC1 (centres unmarked)
Key: 10000 to 30000 nM

Exercise: Give recorded IC50 with USP7 (Homo sapiens, UniProt Q93009) for the following molecule: CNC(=O)C1Cc2nccc(-c3cc(Cl)cc4c3O[C@@H](c3onc5c3CNCC5)C4)c2C1 (some centres unmarked)
Key: 1000 to 10000 nM

Exercise: Give recorded IC50 with USP7 (Homo sapiens, UniProt Q93009) for the following molecule: O=C(C1Cc2cc(Cl)cc(-c3ccnc4[nH]ccc34)c2O1)N1CCN[C@@H](CO)C1 (some centres unmarked)
Key: 1000 to 10000 nM

Exercise: Give recorded IC50 with USP7 (Homo sapiens, UniProt Q93009) for the following molecule: `CS(=O)(=O)NCc1ccc2c(-c3cc(Cl)cc4c3O[C@@H](c3onc5c3CNCC5)C4)ccnc2c1`
Key: 1000 to 10000 nM

Exercise: Give recorded IC50 with USP7 (Homo sapiens, UniProt Q93009) for the following molecule: `O=C([C@H]1Cc2cc(Cl)cc(-c3ncnc4cc(CN5C(=O)CCC5=O)sc34)c2O1)N1CCNCC1`
Key: < 1000 nM

Exercise: Give recorded IC50 with USP7 (Homo sapiens, UniProt Q93009) for the following molecule: CCC(O)c1cc2nccc(-c3cc(Cl)cc4c3O[C@@H](c3onc5c3CNCC5)C4)c2s1 (some centres unmarked) [drawing 1523]
Key: < 1000 nM

Exercise: Give recorded IC50 with USP7 (Homo sapiens, UniProt Q93009) for the following molecule: `O=C([C@H]1Cc2cc(Cl)cc(-c3ccnc4ccsc34)c2O1)N1CCC(N2CCCC2)CC1`
Key: < 1000 nM

Exercise: Give recorded IC50 with USP7 (Homo sapiens, UniProt Q93009) for the following molecule: `Clc1cc2c(c(-c3ccnc4ccnn34)c1)O[C@@H](c1onc3c1CNCC3)C2`
Key: < 1000 nM

Exercise: Give recorded IC50 with USP7 (Homo sapiens, UniProt Q93009) for the following molecule: O=C(C1Cc2cc(Cl)cc(-c3ccnc4[nH]ccc34)c2O1)N1CCC(O)(c2ccc(Cl)cc2)CC1 (centres unmarked)
Key: 1000 to 10000 nM

Exercise: Give recorded IC50 with USP7 (Homo sapiens, UniProt Q93009) for the following molecule: `CN(C)[C@H]1CCN(C(=O)[C@H]2Cc3cc(Cl)cc(-c4ccnc5ccsc45)c3O2)C1`
Key: 1000 to 10000 nM

Exercise: Give recorded IC50 with USP7 (Homo sapiens, UniProt Q93009) for the following molecule: CCC(O)c1cc2nccc(-c3cc(Cl)cc4c3O[C@@H](c3onc5c3CNCC5)C4)c2o1 (some centres unmarked) [drawing 1618]
Key: < 1000 nM

Exercise: Give recorded IC50 with USP7 (Homo sapiens, UniProt Q93009) for the following molecule: O=C(C1Cc2cc(Cl)cc(-c3ccnc4[nH]ccc34)c2O1)N1CCC(c2cnc[nH]2)CC1 (centres unmarked)
Key: 1000 to 10000 nM

Exercise: Give recorded IC50 with USP7 (Homo sapiens, UniProt Q93009) for the following molecule: CNC(=O)c1ccc2c(-c3cc(Cl)cc4c3OC(C(=O)N3CCNCC3)C4)ccnc2c1 (centres unmarked)
Key: 1000 to 10000 nM
